Below, each of the binders is paired with its reported In vitro activity compared with native peptide (%) vs. GIP value.
- Assayed Target: T1, human GIP receptor (human, UniProt P48546 22-466)
- T1 sequence (looked up): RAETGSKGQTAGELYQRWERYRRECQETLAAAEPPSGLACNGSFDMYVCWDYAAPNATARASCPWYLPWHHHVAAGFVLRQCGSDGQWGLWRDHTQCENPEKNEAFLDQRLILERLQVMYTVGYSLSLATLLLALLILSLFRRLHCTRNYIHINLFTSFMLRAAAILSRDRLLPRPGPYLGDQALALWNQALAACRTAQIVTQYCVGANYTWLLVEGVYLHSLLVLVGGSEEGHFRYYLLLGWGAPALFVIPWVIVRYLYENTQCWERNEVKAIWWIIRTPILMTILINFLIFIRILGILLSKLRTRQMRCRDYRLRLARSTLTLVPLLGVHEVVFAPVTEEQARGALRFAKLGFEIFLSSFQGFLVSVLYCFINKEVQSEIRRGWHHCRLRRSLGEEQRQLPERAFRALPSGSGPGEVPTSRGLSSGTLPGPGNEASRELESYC
- Assay Text: cell-based or functional assay
Bridges are numbered along the chain shown (N, C = ends). Where no end group is shown, it is not given here. [ ]: non-standard residue; d: D form. Aib = CC(C)(N)C(=O)O

>  <Binder>
Y[Aib]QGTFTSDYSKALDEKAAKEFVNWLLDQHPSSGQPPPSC (bridge 16-20) [Triple agonist of SEQ ID NO: 101]

>  <Assay Result>
40.1%

$$$$
>  <Binder>
H[Aib]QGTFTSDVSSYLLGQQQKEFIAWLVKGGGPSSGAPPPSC [Triple agonist of SEQ ID NO: 5]

>  <Assay Result>
< 0.1%

$$$$

# evaluate next
input: Could you please provide reported In vitro activity compared with native peptide (%) vs. GIP for H[Aib]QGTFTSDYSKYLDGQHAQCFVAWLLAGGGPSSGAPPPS [Triple agonist of SEQ ID NO: 39] ? Thanks!
output: < 0.1%
